Cited source for all entries: paper PMC5540273

System: EIF2AK1
Details: concentration: 1 μM, replicates: in singlicate; n = 1
reported_endpoint: %Inh (%)
Answer with a number only, understood to be in %.

[[record]]
chemical_structure = "Oc1ccc2ncnc(Nc3ccc(OCc4ccccc4)cc3)c2c1"
reported_endpoint = "%Inh"
units = "%"
reported_measurement = 0

[[record]]
chemical_structure = "O=C(Nc1ccccc1)Nc1ccc(Oc2ccc3nccn3n2)cc1"
reported_endpoint = "%Inh"
units = "%"
reported_measurement = 0

[[record]]
chemical_structure = "O=C(c1ccc(-c2cc(-c3c[nH]nc3-c3ccccn3)ccn2)cc1)N1CCCC1"
reported_endpoint = "%Inh"
units = "%"
reported_measurement = 0

[[record]]
chemical_structure = "C[C@@H]1CCN(C(=O)CO)C[C@@H]1N(C)c1ncnc2[nH]ccc12"
reported_endpoint = "%Inh"
units = "%"
reported_measurement = 5

[[record]]
chemical_structure = "CS(=O)(=O)CCNCc1nc(-c2ccc3ncnc(Nc4ccc(OCc5cccc(F)c5)c(Cl)c4)c3c2)cs1.Cl"
reported_endpoint = "%Inh"
units = "%"
reported_measurement = 0


Prompt line: Which measured %Inh belongs to "COc1ccc(-c2oc3ncnc(N)c3c2-c2ccc(OC)cc2)cc1" , tested on EIF2AK1?;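 further: KINOMEscan kinase panel screen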
Response line: 3

Prompt line: What do you have for "CN1CCC(n2cnc(-c3ccc(F)cc3)c2-c2ccnc(NC3CCNCC3)n2)CC1" ?
Response line: 0

Prompt line: Same question, "Cn1ccc2ncnc(Oc3ccc(NC(=O)Nc4cccnc4)c(Cl)c3)c21" this time
Response line: 0

Prompt line: Now the compound "CCn1c(-c2ccncc2)nc2cnccc21"
Response line: 19
